molecular target: human α2a-AR (Homo sapiens, UniProt P08913); construct: expressed in transfected cells; assay: [3H]Rauwolscine equilibrium competition binding, human α2a-AR expressed in CHO cells; conditions: human α2a-AR in CHO cells; [3H]rauwolscine 2.54 nM; mean ± SEM of four to nine experiments; read-out: Ki = SEM (nM) α2a-AR
Sequence (P08913 whole entry): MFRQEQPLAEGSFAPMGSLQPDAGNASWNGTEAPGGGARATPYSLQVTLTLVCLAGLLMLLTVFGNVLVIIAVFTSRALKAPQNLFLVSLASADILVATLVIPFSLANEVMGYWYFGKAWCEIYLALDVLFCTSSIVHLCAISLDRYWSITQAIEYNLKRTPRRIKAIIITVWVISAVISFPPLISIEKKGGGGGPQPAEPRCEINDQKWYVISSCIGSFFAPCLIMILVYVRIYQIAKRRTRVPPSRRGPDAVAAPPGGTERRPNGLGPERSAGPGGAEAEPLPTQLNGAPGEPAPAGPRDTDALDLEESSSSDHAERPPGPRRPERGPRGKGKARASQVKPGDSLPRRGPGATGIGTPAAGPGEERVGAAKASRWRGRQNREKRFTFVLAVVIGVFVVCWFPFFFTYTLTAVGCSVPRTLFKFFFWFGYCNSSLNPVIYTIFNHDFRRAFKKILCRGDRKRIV
recorded.metric: Ki
Please report the result as a number followed by the unit.

Here are 2 compounds together with their reported answers.
[[record]]
compound_string = "O=C(NCCCCNC(=O)[C@@H]1[C@H]2C[C@H]3c4[nH]c5ccccc5c4CCN3C[C@@H]2CC[C@@H]1O)[C@@H]1[C@H]2C[C@H]3c4[nH]c5ccccc5c4CCN3C[C@@H]2CC[C@@H]1O"
result = "15.3 nM"

[[record]]
compound_string = "O=C(NCCCCCCCNC(=O)[C@@H]1[C@H]2C[C@H]3c4[nH]c5ccccc5c4CCN3C[C@@H]2CC[C@@H]1O)[C@@H]1[C@H]2C[C@H]3c4[nH]c5ccccc5c4CCN3C[C@@H]2CC[C@@H]1O"
result = "0.87 nM"


Prompt: Please report the recorded Ki for "O=C(NCCCNC(=O)[C@@H]1[C@H]2C[C@H]3c4[nH]c5ccccc5c4CCN3C[C@@H]2CC[C@@H]1O)[C@@H]1[C@H]2C[C@H]3c4[nH]c5ccccc5c4CCN3C[C@@H]2CC[C@@H]1O" .
Completion: 52 nM

Prompt: Please report the recorded Ki for "O=C(NCCCCCNC(=O)[C@@H]1[C@H]2C[C@H]3c4[nH]c5ccccc5c4CCN3C[C@@H]2CC[C@@H]1O)[C@@H]1[C@H]2C[C@H]3c4[nH]c5ccccc5c4CCN3C[C@@H]2CC[C@@H]1O" .
Completion: 1.73 nM

###

biological target: human α2a-AR (Homo sapiens, UniProt P08913); construct: expressed in transfected cells; assay: [3H]Rauwolscine equilibrium competition binding, human α2a-AR expressed in CHO cells; conditions: Table 2; human α2a-AR in CHO cells; mean ± SEM of n = 4-6; read-out: pKi α2a-AR (converted)
recorded.metric: Ki (nM)
Please give a number only; it is taken to be in nM.

[[record]]
compound = "O=C(NCCCCNC(=O)[C@@H]1[C@H]2C[C@H]3c4[nH]c5ccccc5c4CCN3C[C@@H]2CC[C@@H]1O)[C@@H]1[C@H]2C[C@H]3c4[nH]c5ccccc5c4CCN3C[C@@H]2CC[C@@H]1O [Compound 3c]"
target = "human α2a-AR (Homo sapiens, UniProt P08913)"
recorded_metric = "Ki"
unit_name = "nM"
result_number = 53.7

[[record]]
compound = "O=C(NCCNC(=O)[C@@H]1[C@H]2C[C@H]3c4[nH]c5ccccc5c4CCN3C[C@@H]2CC[C@@H]1O)[C@@H]1[C@H]2C[C@H]3c4[nH]c5ccccc5c4CCN3C[C@@H]2CC[C@@H]1O [Compound 3a]"
target = "human α2a-AR (Homo sapiens, UniProt P08913)"
recorded_metric = "Ki"
unit_name = "nM"
result_number = 93.3

[[record]]
compound = "O=C(NCCCCCCCNC(=O)[C@@H]1[C@H]2C[C@H]3c4[nH]c5ccccc5c4CCN3C[C@@H]2CC[C@@H]1O)[C@@H]1[C@H]2C[C@H]3c4[nH]c5ccccc5c4CCN3C[C@@H]2CC[C@@H]1O [Compound 3f]"
target = "human α2a-AR (Homo sapiens, UniProt P08913)"
recorded_metric = "Ki"
unit_name = "nM"
result_number = 3.09

[[record]]
compound = "O=C(NCCCCCNC(=O)[C@@H]1[C@H]2C[C@H]3c4[nH]c5ccccc5c4CCN3C[C@@H]2CC[C@@H]1O)[C@@H]1[C@H]2C[C@H]3c4[nH]c5ccccc5c4CCN3C[C@@H]2CC[C@@H]1O [Compound 3d]"
target = "human α2a-AR (Homo sapiens, UniProt P08913)"
recorded_metric = "Ki"
unit_name = "nM"
result_number = 6.17

[[record]]
compound = "O=C(NCCCCCCNC(=O)[C@@H]1[C@H]2C[C@H]3c4[nH]c5ccccc5c4CCN3C[C@@H]2CC[C@@H]1O)[C@@H]1[C@H]2C[C@H]3c4[nH]c5ccccc5c4CCN3C[C@@H]2CC[C@@H]1O [Compound 3e]"
target = "human α2a-AR (Homo sapiens, UniProt P08913)"
recorded_metric = "Ki"
unit_name = "nM"
result_number = 4.47


Prompt: Please report the recorded Ki for O=C(NCCCNC(=O)[C@@H]1[C@H]2C[C@H]3c4[nH]c5ccccc5c4CCN3C[C@@H]2CC[C@@H]1O)[C@@H]1[C@H]2C[C@H]3c4[nH]c5ccccc5c4CCN3C[C@@H]2CC[C@@H]1O [Compound 3b] .
Completion: 182

meta.source: patent US6638943B2
